biological target: Recombinant IKKα (Homo sapiens); construct: purchased Millipore, Dundee, UK; experiment: DELFIA IKKα kinase assay (apparent Ki, Cheng-Prusoff); type: biochemical; settings: DELFIA assay (first line of an example)
pKi: −log10 of the molar value.
measured property: pKi

(P) Nc1n[nH]c2c(C#CC3CC3)cc(-c3ccnc(NC(=O)C4CC4)c3)cc12 [Example 289]
(Q) Nc1n[nH]c2ccc(-c3ccnc4[nH]c(CN5CCCCC5)cc34)cc12 [Example 260]
(R) Nc1n[nH]c2ccc(-c3ccnc4[nH]c(C(=O)NC5CCCC5)cc34)cc12 [Example 235]
(S) Nc1n[nH]c2ccc(-c3ccnc4[nH]c(CCCN5CCCCC5)cc34)cc12 [Example 269]
Prompt: Arrange the 4 molecules from largest to smallest pKi. Would you mind listing the labels in the order asked for?
Response: R, S, P, Q

(1) Nc1n[nH]c2ccc(-c3ccnc4[nH]c(C5CCCCO5)cc34)cc12 (centres unmarked) [Example 229]
(2) Cc1coc(Nc2cc(-c3cc(C#CC(C)(C)C)c4[nH]nc(N)c4c3)ccn2)n1 [Example 315]
(3) Nc1n[nH]c2ccc(-c3ccnc4[nH]c(CC5CCN(Cc6ccccc6)CC5)cc34)cc12 [Example 273]
(4) CC(C)(C)C#Cc1cc(-c2ccnc(Nc3nccs3)c2)cc2c(N)n[nH]c12 [Example 314]
Prompt: Put the items in sequence by pKi, from largest down. Would you mind listing the labels in the order asked for?
Response: 3, 1, 2, 4

(a) CC(C)(C)C#Cc1cc(-c2ccnc3[nH]c(CCN4CCOCC4)cc23)cc2c(N)n[nH]c12 [Example 280]
(b) COC(=O)c1cc2c(-c3ccc4[nH]nc(N)c4c3)ccnc2[nH]1 [Example 231]
Prompt: # compare pKi for a vs b ; return the one with the smaller value // return label of chosen record
Response: a

----------
Target: Recombinant IKKβ (Homo sapiens, UniProt O14920)
Construct: purchased Millipore, Dundee, UK
Sequence (O14920 1-756): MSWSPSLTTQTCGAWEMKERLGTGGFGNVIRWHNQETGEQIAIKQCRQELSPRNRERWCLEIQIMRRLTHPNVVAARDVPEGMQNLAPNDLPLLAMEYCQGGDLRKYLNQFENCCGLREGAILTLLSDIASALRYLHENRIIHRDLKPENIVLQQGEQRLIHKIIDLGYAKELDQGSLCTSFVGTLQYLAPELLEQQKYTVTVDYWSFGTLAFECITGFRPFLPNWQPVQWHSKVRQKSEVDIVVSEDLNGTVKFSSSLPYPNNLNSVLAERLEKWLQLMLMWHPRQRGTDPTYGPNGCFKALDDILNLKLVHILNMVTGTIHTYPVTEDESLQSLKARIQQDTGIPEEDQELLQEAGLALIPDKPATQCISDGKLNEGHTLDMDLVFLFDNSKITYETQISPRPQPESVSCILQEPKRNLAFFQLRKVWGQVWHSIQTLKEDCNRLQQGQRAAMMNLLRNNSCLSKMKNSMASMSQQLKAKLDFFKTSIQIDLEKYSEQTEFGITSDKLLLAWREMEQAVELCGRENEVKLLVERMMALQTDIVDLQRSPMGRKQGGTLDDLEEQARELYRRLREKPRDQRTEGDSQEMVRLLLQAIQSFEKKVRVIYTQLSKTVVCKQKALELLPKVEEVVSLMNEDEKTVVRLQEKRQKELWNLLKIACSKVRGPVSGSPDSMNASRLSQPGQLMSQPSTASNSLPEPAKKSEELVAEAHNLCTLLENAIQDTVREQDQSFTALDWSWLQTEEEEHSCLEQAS
Assay: DELFIA IKKβ kinase assay (apparent Ki, Cheng-Prusoff)
Type: biochemical
Conditions: DELFIA assay (first line of an example)
pKi: −log10 of the molar value.
measured property: pKi

(A) Nc1n[nH]c2c(Cl)cc(-c3ccnc4[nH]c(CC5CCCCC5)cc34)cc12
(B) Nc1n[nH]c2ccc(-c3ccnc4[nH]c(CNC5CCCCC5)cc34)cc12
Prompt: A or B : whose pKi is greater? // return label of chosen record
Response: A
(A: 6.42, B: 5.89)

(I) CN(C)CCCNCc1cc2c(-c3ccc4[nH]nc(N)c4c3)ccnc2[nH]1
(II) CC(C)N(C)Cc1cc2c(-c3ccc4[nH]nc(N)c4c3)ccnc2[nH]1
(III) CC(C)(C)C#Cc1cc(-c2ccnc(Nc3ncccn3)c2)cc2c(N)n[nH]c12
(IV) Nc1cc(-c2cc(-c3ccc(CCN4CCOCC4)cc3)c3[nH]nc(N)c3c2)ccn1
Prompt: Which order do these items take when sorted by rising pKi? List them. Would you mind listing the labels in the order asked for?
Response: III, II, I, IV
(III: 5.34, II: 5.67, I: 5.95, IV: 6.97)

----------
molecular target: Recombinant IKKα (Homo sapiens, UniProt O15111); construct: purchased Millipore, Dundee, UK; test: DELFIA IKKα kinase assay (apparent Ki, Cheng-Prusoff); format: biochemical; details: DELFIA assay (first line of an example)
pKi: −log10 of the molar value.
measured property: pKi

For orientation, consider the following solved cases.
CN(C)CCCNCc1cc2c(-c3ccc4[nH]nc(N)c4c3)ccnc2[nH]1 [Example 258] ... 7.80
CC(C)(C)C#Cc1cc(-c2ccnc3[nH]c(C4CCC4)nc23)cc2c(N)n[nH]c12 [Example 301] ... 7.09
Nc1n[nH]c2ccc(-c3ccnc4[nH]c(CCN5CCOCC5)cc34)cc12 [Example 268] ... 7.96

(a) Nc1n[nH]c2ccc(-c3ccnc4[nH]c(CO)cc34)cc12 [Example 224]
(b) CC(C)(C)C#Cc1cc(-c2ccnc(NS(C)(=O)=O)c2)cc2c(N)n[nH]c12 [Example 194]
(c) Nc1n[nH]c2ccc(-c3ccnc4[nH]c(Cc5ccccc5)cc34)cc12 [Example 223]
(d) Nc1n[nH]c2ccc(-c3ccnc4[nH]c(CN5CCOCC5)cc34)cc12 [Example 262]
Prompt: Which order do these items take when sorted by rising pKi? List them. Would you mind listing the labels in the order asked for?
Response: b, d, a, c
(b: 6.43, d: 7.66, a: 8.30, c: 9.00)

----------
Biological target: Recombinant IKKβ (Homo sapiens, UniProt O14920)
Construct: purchased Millipore, Dundee, UK
Assay: DELFIA IKKβ kinase assay (apparent Ki, Cheng-Prusoff)
Assay type: biochemical
Settings: DELFIA assay (first line of an example)
Procedure: IKKα and IKKβ inhibitory activity was determined using three different assays: a dissociation enhanced ligand fluorescent immunoassay (DELFIA) based on the protocol of HTScan™ IKKβ Kinase Assay (Cell Signaling Technology, USA); an Adapta IKKα assay (performed by Life Technologies); a Z′-LYTE™ IKKβ assay (performed by Life Technologies). […]
pKi: −log10 of the molar value.
measured property: pKi

(a) CC(C)(C)C#Cc1cc(-c2ccnc3[nH]c(C(C)(C)O)cc23)cc2c(N)n[nH]c12
(b) Nc1n[nH]c2ccc(-c3ccnc4[nH]c(CCC5CCCCC5)cc34)cc12
(c) Nc1n[nH]c2c(Cl)cc(-c3ccnc4[nH]c(CN5CCOCC5)cc34)cc12
(d) CC(C)(C)C#Cc1cc(-c2ccnc(NS(C)(=O)=O)c2)cc2c(N)n[nH]c12
Prompt: Arrange the 4 molecules from largest to smallest pKi. Would you mind listing the labels in the order asked for?
Response: c, b, a, d

(a) Nc1n[nH]c2ccc(-c3ccnc4[nH]c(CNc5ccccc5)cc34)cc12
(b) CC(C)CCNC(=O)c1cc2c(-c3ccc4[nH]nc(N)c4c3)ccnc2[nH]1
Prompt: a or b : whose pKi is greater? // return label of chosen record
Response: a

(P) Nc1n[nH]c2ccc(-c3ccnc4[nH]c(CC5CCNCC5)cc34)cc12
(Q) Nc1n[nH]c2ccc(-c3ccnc4[nH]c(CN5CCOCC5)cc34)cc12
(R) CC(C)(C)C#Cc1cc(-c2ccnc3[nH]c(C(C)(C)C)cc23)cc2c(N)n[nH]c12
Prompt: Put the items in sequence by pKi, from largest down. Would you mind listing the labels in the order asked for?
Response: P, Q, R

(1) COCCCNCc1cc2c(-c3ccc4[nH]nc(N)c4c3)ccnc2[nH]1
(2) COC(=O)Nc1cc(-c2cc(-c3cccc(CN4CCOCC4)c3)c3[nH]nc(N)c3c2)ccn1
Prompt: 1 or 2 : whose pKi is greater? // return label of chosen record
Response: 2
(2: 6.37, 1: 5.59)

----------
Biological target: Recombinant IKKα (Homo sapiens)
Construct: purchased Millipore, Dundee, UK
Sequence (O15111 1-745): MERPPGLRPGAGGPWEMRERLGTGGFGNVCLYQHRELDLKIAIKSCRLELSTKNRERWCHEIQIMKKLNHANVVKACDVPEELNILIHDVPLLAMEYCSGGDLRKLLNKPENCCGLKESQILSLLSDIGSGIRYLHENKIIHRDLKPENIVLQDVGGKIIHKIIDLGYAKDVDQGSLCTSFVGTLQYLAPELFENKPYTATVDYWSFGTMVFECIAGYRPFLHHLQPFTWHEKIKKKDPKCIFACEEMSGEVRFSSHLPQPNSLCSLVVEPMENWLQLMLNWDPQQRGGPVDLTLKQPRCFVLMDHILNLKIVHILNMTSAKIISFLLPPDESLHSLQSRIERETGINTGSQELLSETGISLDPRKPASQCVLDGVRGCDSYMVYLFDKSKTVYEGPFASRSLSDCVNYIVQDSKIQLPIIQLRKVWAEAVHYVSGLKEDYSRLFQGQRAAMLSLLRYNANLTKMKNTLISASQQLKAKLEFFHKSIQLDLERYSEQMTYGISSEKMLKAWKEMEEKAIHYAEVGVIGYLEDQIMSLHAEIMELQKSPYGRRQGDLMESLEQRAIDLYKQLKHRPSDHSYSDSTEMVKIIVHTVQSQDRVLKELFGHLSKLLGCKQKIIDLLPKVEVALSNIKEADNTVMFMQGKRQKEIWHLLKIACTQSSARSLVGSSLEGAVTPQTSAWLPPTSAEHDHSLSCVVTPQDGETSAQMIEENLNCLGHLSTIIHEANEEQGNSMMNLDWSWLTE
Assay: DELFIA IKKα kinase assay (apparent Ki, Cheng-Prusoff)
Assay type: biochemical
Details: DELFIA assay (first line of an example)
pKi: −log10 of the molar value.
measured property: pKi

CC(C)N(C)Cc1cc2c(-c3ccc4[nH]nc(N)c4c3)ccnc2[nH]1 ... 6.96
CCCCN(CC)CCNC(=O)c1cc2c(-c3ccc4[nH]nc(N)c4c3)ccnc2[nH]1 ... 7.54

(a) COC(=O)Nc1cc(-c2cc(-c3ccc(CN4CCOCC4)cc3)c3[nH]nc(N)c3c2)ccn1
(b) CC(C)(C)C#Cc1cc(-c2ccnc3[nH]c(C4CC4)cc23)cc2c(N)n[nH]c12
(c) Nc1n[nH]c2c(C#CC3CC3)cc(-c3ccnc(NC4COC4)c3)cc12
Prompt: Which order do these items take when sorted by rising pKi? List them. Would you mind listing the labels in the order asked for?
Response: b, a, c
